- TGT: human TLR7 (Homo sapiens, UniProt Q9NYK1)
- Sequence (Q9NYK1 27-1049): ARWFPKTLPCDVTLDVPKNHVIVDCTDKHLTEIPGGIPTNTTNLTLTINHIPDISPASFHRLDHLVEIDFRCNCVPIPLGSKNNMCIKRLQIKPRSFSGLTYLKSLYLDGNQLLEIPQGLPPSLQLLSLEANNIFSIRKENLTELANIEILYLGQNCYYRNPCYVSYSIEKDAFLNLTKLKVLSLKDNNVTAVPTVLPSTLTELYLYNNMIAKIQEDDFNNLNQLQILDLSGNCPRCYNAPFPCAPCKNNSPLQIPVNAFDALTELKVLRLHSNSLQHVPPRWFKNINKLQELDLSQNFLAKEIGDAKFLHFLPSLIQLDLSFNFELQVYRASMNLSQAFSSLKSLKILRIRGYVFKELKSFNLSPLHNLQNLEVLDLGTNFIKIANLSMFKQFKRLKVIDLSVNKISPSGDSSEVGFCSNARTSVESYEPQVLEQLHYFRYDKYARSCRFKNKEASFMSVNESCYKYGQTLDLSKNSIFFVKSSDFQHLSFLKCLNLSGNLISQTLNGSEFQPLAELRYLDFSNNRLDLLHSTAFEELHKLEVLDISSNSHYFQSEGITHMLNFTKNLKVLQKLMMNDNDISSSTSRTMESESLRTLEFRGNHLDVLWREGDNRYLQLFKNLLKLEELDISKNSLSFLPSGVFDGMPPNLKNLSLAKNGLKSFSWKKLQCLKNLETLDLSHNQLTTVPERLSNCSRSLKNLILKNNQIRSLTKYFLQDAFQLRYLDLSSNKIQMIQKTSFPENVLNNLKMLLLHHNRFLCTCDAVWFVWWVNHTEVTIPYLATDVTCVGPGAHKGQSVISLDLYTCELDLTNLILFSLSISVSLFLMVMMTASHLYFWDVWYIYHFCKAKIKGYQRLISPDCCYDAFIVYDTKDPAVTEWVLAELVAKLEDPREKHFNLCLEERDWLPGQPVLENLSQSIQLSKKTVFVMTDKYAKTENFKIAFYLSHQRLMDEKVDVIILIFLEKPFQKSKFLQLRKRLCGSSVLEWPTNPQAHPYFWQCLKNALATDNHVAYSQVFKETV
- EXPERIMENTAL_DETAILS: HEK-Blue TLR7 reporter assay (SEAP reporter)
- PARTICULARS: HEK-Blue TLR7 cells, 18 h treatment, SEAP readout; average if more than one assay; read-out: TLR7 Agonism HEK Blue ™ Assay EC50
pEC50: −log10 of the molar value.

COMPOUND_SMILES: Nc1nc2nc3c1nc(O)n3Cc1ccc(Oc3cccc(C(=O)NC4CNC4)c3)c(c1)C/C=C\CCO2
pEC50: 7.82
//
COMPOUND_SMILES: Nc1nc2nc3c1nc(O)n3Cc1ccc(Oc3ccc(CNC4CCC4)cc3)c(c1)C/C=C\CCO2
pEC50: 9.00
//
COMPOUND_SMILES: Nc1nc2nc3c1nc(O)n3Cc1ccc(-c3cnc(CNC4CCC4)s3)c(c1)C/C=C/CCO2
pEC50: 9.62
//
COMPOUND_SMILES: Nc1nc2nc3c1nc(O)n3Cc1cc(cc(Oc3ccc(CNC4CCC4)cc3)c1)CCCCCO2
pEC50: 7.38
//
COMPOUND_SMILES: Nc1nc2nc3c1nc(O)n3Cc1ccc(-c3cnn(C4CCNCC4)c3)c(c1)C/C=C/CCO2
pEC50: 9.00
//
COMPOUND_SMILES: Nc1nc2nc3c1nc(O)n3Cc1ccc(-c3ccc(CNC4CC(F)(F)C4)cc3)c(c1)C/C=C/CCO2
pEC50: 8.82
//
COMPOUND_SMILES: Nc1nc2nc3c1nc(O)n3Cc1ccc(Oc3cccc(CNC4CC4)c3)c(c1)CCCCCO2
pEC50: 7.54
//
COMPOUND_SMILES: Nc1nc2nc3c1nc(O)n3Cc1ccc(-c3cnn(CCNC4CCC4)c3)c(c1)C/C=C\CCO2
pEC50: 9.46
